# assayDetails: Phase 1 single- and multiple-ascending dose study: plasma PK of Compound A after oral Compound 1
# Format: in vivo, human
# runConditions: human, plasma, oral; Cohort 6, 300 mg Cpd 1 QD fasted, Day 10, mean
valueType: AUC
Form entry: enter the amount, then its unit.

For the molecule Cn1ccc2c([C@H](Nc3cc(Cl)c4ncc(C#N)c(NCC(C)(C)C)c4c3)c3cn(C45CC(C4)C5)nn3)cccc2c1=O [Compound A] , what AUC is on record? 37400 ng·h/mL

* * *

# assayDetails: Phase 1 single- and multiple-ascending dose study: plasma PK of Compound A after oral Compound 1
# Type: in vivo, human
# runConditions: human, plasma, oral; Cohort 5, 75 mg Cpd 1 QD fasted, Day 10, median; read-out: Tmax
valueType: Tmax (h)
Give the quantity in h, number only.

Value lookup for Tmax; key = `Cn1ccc2c([C@H](Nc3cc(Cl)c4ncc(C#N)c(NCC(C)(C)C)c4c3)c3cn(C45CC(C4)C5)nn3)cccc2c1=O` 3

* * *

# assayDetails: Phase 1 single- and multiple-ascending dose study: plasma PK of Compound A after oral Compound 1
# Type: in vivo, human
# runConditions: human, plasma, oral; multiple doses of Compound 1 (75 to 900 mg QD, 600 mg BID), fasted; range across cohorts; read-out: median t1/2
valueType: half-life

What value of half-life has been reported for the following molecule? `Cn1ccc2c([C@H](Nc3cc(Cl)c4ncc(C#N)c(NCC(C)(C)C)c4c3)c3cn(C45CC(C4)C5)nn3)cccc2c1=O` 19 to 28 h

* * *

# assayDetails: Phase 1 single- and multiple-ascending dose study: plasma PK of Compound A after oral Compound 1
# Assay type: in vivo, human
# runConditions: human, plasma, oral; Cohort 7, 900 mg Cpd 1 QD fasted, Day 10, median; read-out: Tmax
valueType: Tmax (h)
Output spec: scalar in h, unitless text.

State the recorded Tmax for this entry: `Cn1ccc2c([C@H](Nc3cc(Cl)c4ncc(C#N)c(NCC(C)(C)C)c4c3)c3cn(C45CC(C4)C5)nn3)cccc2c1=O` 3.01

* * *

# assayDetails: Phase 1 single- and multiple-ascending dose study: plasma PK of Compound A after oral Compound 1
# Type: in vivo, human
# runConditions: human, plasma, oral, across Compound 1 dose levels, single or multiple doses; read-out: median t1/2
valueType: half-life

Requested field: half-life. Item: `Cn1ccc2c([C@H](Nc3cc(Cl)c4ncc(C#N)c(NCC(C)(C)C)c4c3)c3cn(C45CC(C4)C5)nn3)cccc2c1=O` 20 to 30 h

* * *

# assayDetails: Phase 1 single- and multiple-ascending dose study: plasma PK of Compound A after oral Compound 1
# Format: in vivo, human
# runConditions: human, plasma, po, single oral doses of Compound 1 (300 to 1500 mg), fasted; range across doses; read-out: median terminal elimination t1/2
valueType: half-life

So what does the record say about half-life for `Cn1ccc2c([C@H](Nc3cc(Cl)c4ncc(C#N)c(NCC(C)(C)C)c4c3)c3cn(C45CC(C4)C5)nn3)cccc2c1=O` ? 22 to 29 h

* * *

# assayDetails: Phase 1 single- and multiple-ascending dose study: plasma PK of Compound A after oral Compound 1
# Format: in vivo, human
# runConditions: human, plasma, oral, 300 mg, Cohort 6, 300 mg Cpd 1 QD fasted, Day 10, median; read-out: t1/2 (converted)
# Procedure: A 2-part, single- and multiple-ascending dose sponsor-unblinded Phase 1 study was conducted for Cohorts 1-9 to evaluate the safety, tolerability, PK, and PD of Compound 1 in healthy participants. […] Part A proceeded in 4 staggered, dose-escalation cohorts. […] The dose of Compound 1 for all adaptive cohorts (Cohorts 2, 3, and 4) was determined based on cumulative safety and available PK data through a minimum of Day 3 from previous cohorts, not exceeding the specified upper dose limit (Table 2). […]
valueType: half-life (h)
The figure you give is taken to be in h; do not add the unit.

Requested read-out: half-life. Entry: `Cn1ccc2c([C@H](Nc3cc(Cl)c4ncc(C#N)c(NCC(C)(C)C)c4c3)c3cn(C45CC(C4)C5)nn3)cccc2c1=O` 19
